biological target: MAST1, Q9Y2H9; experiment: holdup assay; parameters: key: below the threshold = too weak to quantify, mostly under pKd 3.1 to 4; settings: plain residues with an end cap or a label only (N-terminal biotin on a linker: ado-ado)
Sequence (Q9Y2H9 962-1065): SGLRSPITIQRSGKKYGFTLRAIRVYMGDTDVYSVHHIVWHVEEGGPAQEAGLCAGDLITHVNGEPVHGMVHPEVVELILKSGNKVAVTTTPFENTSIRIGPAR
Overview of reported pKd across a group of binders:
Please give the numeric answer without any surrounding text.

// known answers, use as guide
binder	pKd
MLSKQSESAI [FLVCR1, Q9Y5Y0]	4.18
QMNQTLPVQV [EPHB3, P54753]	3.93
TKGPRGPTRV [SAPCD1, Q5SSQ6]	4.09
SKENVQETQI [LRRC4B, Q9NT99]	3.97
GQEEQVTTRL [TRPC5, Q9UL62]	4.8
TPPAAKKSRI [BAZ1A, Q9NRL2]	3.9
ETQVTAETVI [TMEM225B, P0DP42]	4.31
IKAIVDLTGL [TRAF2, Q12933]	3.63
NHSSSPETTA [TRMT13, Q9NUP7]	3.55
PKRSFIESNV [TANC1, Q9C0D5]	4.7

Q: Return reported pKd; argument: QSARLWETSI [ADAM22, Q9P0K1]
Result: 4.92

Q: Return reported pKd; argument: TASPAKETSF [SLC2A7, Q6PXP3]
Result: 4.55

Q: Return reported pKd; argument: DDPSTAETVL [ABCA7, Q8IZY2]
Result: 4.88
